From: the supplement of paper PMC10307832

Assignment: determine reported relative viability for the given molecules.
Tested on: NCI-H1993
Experiment: relative viability (nuclei count vs DMSO), 5 days (fraction); higher = more cells survive
Settings: first compound 0.02 µM

relative viability for CC(=O)O[C@@]12CO[C@@H]1C[C@H](O)[C@@]1(C)C(=O)[C@H](O)C3=C(C)[C@@H](OC(=O)[C@H](O)[C@@H](NC(=O)OC(C)(C)C)c4ccccc4)C[C@@](O)([C@@H](OC(=O)c4ccccc4)[C@H]21)C3(C)C [Docetaxel] + C[C@]1(O)C[C@@H](c2nc(-c3ccc4ccc(-c5ccccc5)nc4c3)c3c(N)nccn32)C1 [Linsitinib] (partner 1 µM) ?
0.488

relative viability for CC(=O)O[C@@]12CO[C@@H]1C[C@H](O)[C@@]1(C)C(=O)[C@H](O)C3=C(C)[C@@H](OC(=O)[C@H](O)[C@@H](NC(=O)OC(C)(C)C)c4ccccc4)C[C@@](O)([C@@H](OC(=O)c4ccccc4)[C@H]21)C3(C)C [Docetaxel] + Cc1cc(Nc2cc(N3CCN(C)CC3)nc(Sc3ccc(NC(=O)C4CC4)cc3)n2)n[nH]1 [Tozasertib] (partner 0.1 µM) ?
0.586

relative viability for CC(=O)O[C@@]12CO[C@@H]1C[C@H](O)[C@@]1(C)C(=O)[C@H](O)C3=C(C)[C@@H](OC(=O)[C@H](O)[C@@H](NC(=O)OC(C)(C)C)c4ccccc4)C[C@@](O)([C@@H](OC(=O)c4ccccc4)[C@H]21)C3(C)C [Docetaxel] + CC1(C)CCC(c2ccc(Cl)cc2)=C(CN2CCN(c3ccc(C(=O)NS(=O)(=O)c4ccc(N[C@H](CCN5CCOCC5)CSc5ccccc5)c(S(=O)(=O)C(F)(F)F)c4)cc3)CC2)C1 [Navitoclax] (partner 0.5 µM) ?
0.436
